Measured hERG current change (%, negative = inhibition) at 10uM, listed per entry for reference.
TESTED TARGET: human ether-à-go-go-related gene (hERG) potassium channel (human, UniProt Q12809);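 note: peak tail current of the secondary pulse compared with the same well before compound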
Sequence (Q12809 whole entry, looked up): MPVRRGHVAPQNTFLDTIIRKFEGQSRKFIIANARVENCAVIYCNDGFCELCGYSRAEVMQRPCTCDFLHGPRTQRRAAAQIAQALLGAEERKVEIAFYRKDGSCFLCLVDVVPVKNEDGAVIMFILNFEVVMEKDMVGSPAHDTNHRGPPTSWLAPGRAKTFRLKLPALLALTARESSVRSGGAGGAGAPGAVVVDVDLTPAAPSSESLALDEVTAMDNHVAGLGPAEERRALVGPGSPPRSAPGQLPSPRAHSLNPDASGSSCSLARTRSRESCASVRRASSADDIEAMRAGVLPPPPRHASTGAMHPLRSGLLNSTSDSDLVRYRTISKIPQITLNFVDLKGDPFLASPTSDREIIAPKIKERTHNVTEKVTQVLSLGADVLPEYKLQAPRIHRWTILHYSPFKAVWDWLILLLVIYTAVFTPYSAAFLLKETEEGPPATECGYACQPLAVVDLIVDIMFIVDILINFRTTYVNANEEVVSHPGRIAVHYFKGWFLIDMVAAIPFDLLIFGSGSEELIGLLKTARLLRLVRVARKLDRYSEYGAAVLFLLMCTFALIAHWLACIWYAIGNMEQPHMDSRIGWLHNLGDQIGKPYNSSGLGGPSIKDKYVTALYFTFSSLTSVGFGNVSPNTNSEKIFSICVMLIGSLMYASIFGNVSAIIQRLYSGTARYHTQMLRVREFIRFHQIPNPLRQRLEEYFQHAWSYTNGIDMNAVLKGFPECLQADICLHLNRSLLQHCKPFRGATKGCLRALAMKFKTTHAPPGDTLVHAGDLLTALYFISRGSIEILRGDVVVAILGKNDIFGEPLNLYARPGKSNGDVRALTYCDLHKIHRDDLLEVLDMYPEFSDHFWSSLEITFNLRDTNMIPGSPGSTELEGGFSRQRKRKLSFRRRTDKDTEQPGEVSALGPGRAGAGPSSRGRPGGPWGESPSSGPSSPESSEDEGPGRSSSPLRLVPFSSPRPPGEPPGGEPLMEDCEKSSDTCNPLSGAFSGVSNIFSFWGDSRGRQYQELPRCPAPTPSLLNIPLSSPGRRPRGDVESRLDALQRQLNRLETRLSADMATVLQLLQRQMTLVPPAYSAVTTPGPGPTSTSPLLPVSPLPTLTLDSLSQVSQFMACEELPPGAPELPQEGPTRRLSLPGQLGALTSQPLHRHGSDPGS
TEST DETAILS: primary screen, population patch clamp on CHO cells stably expressing hERG; higher = less effect of the substance
The campaign covered roughly 310,000 compounds. About 14,000 (4.5%) showed an effect of 50% or more. The effect is printed as a negative number. For the sample, strong results were picked, then their nearest neighbours and some compounds at random.
RECORDED ENDPOINT: hERG current change (%, negative = inhibition) at 10uM (%)

[[record]]
compound = "c1ccc(CNc2c3ccccc3nc3ccccc23)cc1"
unit_name = "%"
assay_value = -77.1

[[record]]
compound = "c1coc(CNc2c3c(nc4ccccc24)CCC3)c1"
unit_name = "%"
assay_value = -78.7

[[record]]
compound = "O=C(NCc1ccco1)c1c2c(nc3ccccc13)CCC2"
unit_name = "%"
assay_value = -24.8

[[record]]
compound = "COc1ccccc1OCCCCN1CCC(C)CC1"
unit_name = "%"
assay_value = -16

[[record]]
compound = "Cc1ccccc1NC(=O)CSc1ccncc1"
unit_name = "%"
assay_value = -1.94

[[record]]
compound = "Cc1ccc(-c2noc(Cn3cc(S(=O)(=O)N4CCCC4)ccc3=O)n2)cc1"
unit_name = "%"
assay_value = 8.62

[[record]]
compound = "COc1ccccc1-c1nnc2sc(COc3ccc(F)cc3)nn12"
unit_name = "%"
assay_value = -74

[[record]]
compound = "CCOc1ccccc1NC(=O)CCNS(=O)(=O)c1ccccc1"
unit_name = "%"
assay_value = 17.6

[[record]]
compound = "COc1ccccc1NC(=O)C1CCN(S(=O)(=O)c2cccs2)CC1"
unit_name = "%"
assay_value = -7.13

[[record]]
compound = "Cc1ccc(C)c(N2CCN(S(=O)(=O)c3ccc4c(c3)CC(=O)N4C)CC2)c1"
unit_name = "%"
assay_value = -19.4

[[record]]
compound = "CN(C)CCNc1c2c(nc3ccccc13)CCC2"
unit_name = "%"
assay_value = -0.291

[[record]]
compound = "CSc1nnc2c3cc(C)ccc3n(Cc3ccccc3)c2n1"
unit_name = "%"
assay_value = 2.55

[[record]]
compound = "c1coc(CNc2c3c(nc4ncnn24)CCC3)c1"
unit_name = "%"
assay_value = -29.6

[[record]]
compound = "Oc1c(-c2cc(-c3ccco3)[nH]n2)ccc2ccccc12"
unit_name = "%"
assay_value = 13.7

[[record]]
compound = "N#C/C(=C\\c1ccc(-c2cccc([N+](=O)[O-])c2)o1)C(=O)N1CCOCC1"
unit_name = "%"
assay_value = -6.75

[[record]]
compound = "COc1ccc(C(=O)Nc2cc(Cl)ccc2Cl)c(OC)n1"
unit_name = "%"
assay_value = -5.79

[[record]]
compound = "O=C(Cn1c(=O)oc2ccccc21)N1CCCC1"
unit_name = "%"
assay_value = 14.4

[[record]]
compound = "Nc1[nH]nc2nc3ccccc3cc12"
unit_name = "%"
assay_value = 23

[[record]]
compound = "NNc1nnc2c3cc(F)ccc3n(Cc3ccccc3)c2n1"
unit_name = "%"
assay_value = -22.4

[[record]]
compound = "OCC(Cc1ccccc1)Nc1c2ccccc2nc2ccccc12 (stereo not drawn)"
unit_name = "%"
assay_value = -71.2

[[record]]
compound = "Cc1cc(NC(=O)CSc2nnc(COc3ccccc3)n2Cc2ccco2)no1"
unit_name = "%"
assay_value = 2.24

[[record]]
compound = "CCCCCn1c(=O)c(C(=O)Nc2cccc(C)c2)c(O)c2ccccc21"
unit_name = "%"
assay_value = 20.7

[[record]]
compound = "CSc1nnc2c3cc(F)ccc3n(Cc3ccccc3)c2n1"
unit_name = "%"
assay_value = 13.6

[[record]]
compound = "COc1cccc(CNC(=O)CCCc2nnc3n(C)c(=O)c4sccc4n23)c1"
unit_name = "%"
assay_value = -22.2

[[record]]
compound = "O=C(NC(CO)Cc1ccccc1)c1ccccc1 (stereo not drawn)"
unit_name = "%"
assay_value = -10.5

[[record]]
compound = "COc1cc2nc(N3CCN(C(=O)[C@H]4COc5ccccc5O4)CC3)nc(N)c2cc1OC"
unit_name = "%"
assay_value = -37.7

[[record]]
compound = "CCCCCOc1ccc(CSCCNC(=S)Nc2ccccc2)cc1"
unit_name = "%"
assay_value = -5.94

[[record]]
compound = "O=C(c1ccco1)N1CCN(C2CC(=O)N(c3ccc(F)c(Cl)c3)C2=O)CC1 (stereo not drawn)"
unit_name = "%"
assay_value = -14.2

[[record]]
compound = "Cc1ccc(Oc2ncnc(N)c2[N+](=O)[O-])cc1C"
unit_name = "%"
assay_value = 31.8

[[record]]
compound = "CN(C)CCCNc1c2c(nc3ccccc13)CCC2.Cl"
unit_name = "%"
assay_value = -3.18

[[record]]
compound = "CCCCN(C)C(=O)c1cc2cc3cc(OC)ccc3nc2o1"
unit_name = "%"
assay_value = -30.8

[[record]]
compound = "COc1cccc(N2CCN(C(=O)CC(C)(C)CC3=NS(=O)(=O)c4ccccc4N3)CC2)c1"
unit_name = "%"
assay_value = -6.09

[[record]]
compound = "CCCCC(=O)NC(c1ccccc1Cl)c1ccc2cccnc2c1O (stereo not drawn)"
unit_name = "%"
assay_value = 15.2

[[record]]
compound = "Cc1ccc2c(c1)c1nnc(SCC(=O)Nc3cccc(Cl)c3C)nc1n2CC(=O)O"
unit_name = "%"
assay_value = 19.6

[[record]]
compound = "COc1cc(/C=C/C(=O)OCC(=O)NCc2ccco2)ccc1O"
unit_name = "%"
assay_value = 3.65

[[record]]
compound = "O=C(CCCC1=NS(=O)(=O)c2ccccc2N1)N1CCN(c2ccccc2)CC1"
unit_name = "%"
assay_value = -1.79

[[record]]
compound = "COC(=O)c1[nH]c(C)c(/C(O)=C2\\C(=O)C(=O)N(CCN3CCOCC3)C2c2ccc(C)o2)c1C (stereo not drawn)"
unit_name = "%"
assay_value = -6.49

[[record]]
compound = "CCOC(=O)c1c(-c2ccccc2)csc1NC(=O)c1cc(S(=O)(=O)N2CCOCC2)ccc1C"
unit_name = "%"
assay_value = 2.23

[[record]]
compound = "Cl.c1ccc(CNc2ncnc3ccccc23)cc1"
unit_name = "%"
assay_value = 4.3

[[record]]
compound = "COc1ccccc1N1CCN(C(=O)CCCC2=NS(=O)(=O)c3ccccc3N2)CC1"
unit_name = "%"
assay_value = 2.62

[[record]]
compound = "c1ccc(CNc2nc(-c3ccccc3)nc3ccccc23)cc1"
unit_name = "%"
assay_value = 4.15

[[record]]
compound = "COCCn1c(SCC(=O)Nc2ccc(F)cc2F)nc2c([nH]c3ccccc32)c1=O"
unit_name = "%"
assay_value = 8.08


====

TESTED TARGET: human ether-à-go-go-related gene (hERG) potassium channel (human, UniProt Q12809);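 note: peak tail current of the secondary pulse compared with the same well before compound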
TEST DETAILS: primary screen, population patch clamp on CHO cells stably expressing hERG; higher = less effect of the substance
Out of some 310,000 compounds screened, about 14,000 (4.5%) showed an effect of 50% or more. The effect is printed as a negative number. Shown is part of a subset that was picked to be rich in strong results.
RECORDED ENDPOINT: hERG current change (%, negative = inhibition) at 10uM (%)

[[record]]
compound = "CCN1CCN(CC(O)COc2ccc3c(c2)CCC3)CC1.Cl (stereo not shown)"
assay_value = 5.59

[[record]]
compound = "CCOC(=O)CSc1nc2sc3c(c2c(=O)n1-c1ccc(OCC)cc1)CCN(C)C3"
assay_value = -53.9

[[record]]
compound = "COc1ccc(-n2c(SCC(N)=O)nc3sc4c(c3c2=O)CCC4)cc1"
assay_value = -16.9

[[record]]
compound = "Cc1ccccc1NC(=O)CSc1nnnn1C"
assay_value = 6.94

[[record]]
compound = "COCCCn1c(C(=O)N2CC(C)OC(C)C2)cc2c(=O)n3cccc(C)c3nc21 (stereo not shown)"
assay_value = 0.735

[[record]]
compound = "CCN1CCN(c2nc3sc4c(c3c(=O)n2-c2ccc(OC)cc2)CCCCC4)CC1"
assay_value = -60.3

[[record]]
compound = "O=C(c1ccc(Cl)c(S(=O)(=O)N2CCOCC2)c1)N1CCN(c2ccccc2F)CC1"
assay_value = -15.1

[[record]]
compound = "CCOc1ccc(-n2nnnc2-c2nc3ccccc3s2)cc1"
assay_value = 11.9

[[record]]
compound = "COc1ccc(C2C(C#N)=C(N)Nc3onc(C(C)(C)C)c32)c(OC)c1 (stereo not shown)"
assay_value = 3.15

[[record]]
compound = "CCOCCCNC(=O)c1cc2c(=O)n3cccc(C)c3nc2n1C"
assay_value = 12.4

[[record]]
compound = "CCOc1ccccc1N1CCN(CC(O)COc2ccc3c(C)cc(=O)oc3c2)CC1 (stereo not shown)"
assay_value = -53.1

[[record]]
compound = "COc1ccc(N2CCN(CC(O)COc3cc(C)ccc3C)CC2)cc1.Cl (stereo not shown)"
assay_value = -33.8

[[record]]
compound = "C/C(=N\\NC(=O)CNc1cccc2ccccc12)c1ccccc1"
assay_value = 10.2

[[record]]
compound = "CCc1ccc(-c2nn[nH]n2)cc1"
assay_value = 4.61

[[record]]
compound = "CN(Cc1ccco1)S(=O)(=O)c1nnc(NC(=O)c2ccccc2Cl)s1"
assay_value = 15

[[record]]
compound = "Cc1cccc(NC(=S)N(CCN(C)C)Cc2cccs2)c1"
assay_value = -25.8

[[record]]
compound = "COc1ccccc1N1CCN(CC(O)COc2ccc3c(C)cc(=O)oc3c2)CC1 (stereo not shown)"
assay_value = -24.7

[[record]]
compound = "COc1ccc(N2CCN(CC(O)COc3ccc(C)cc3C)CC2)cc1.Cl (stereo not shown)"
assay_value = -67.8

[[record]]
compound = "Cc1ccc(C(=O)N/C(=C\\c2cccc([N+](=O)[O-])c2)C(=O)Nc2cccc(C(=O)O)c2)cc1"
assay_value = 15.2

[[record]]
compound = "Cl.OC1(CN2CCOCC2)C2CC3CC(C2)CC1C3 (stereo not shown)"
assay_value = 11

[[record]]
compound = "Cc1cccn2c(=O)c3cc(C(=O)N4CCOCC4)n(C)c3nc12"
assay_value = -32.1

[[record]]
compound = "COC(=O)c1[nH]c2ccccc2c1NC(=O)CN1CCC(C(N)=O)(N2CCCCC2)CC1"
assay_value = -35.1

[[record]]
compound = "Cc1ccc(C(=O)N/C(=C\\c2cccc([N+](=O)[O-])c2)C(=O)NCc2ccncc2)cc1"
assay_value = -73.3

[[record]]
compound = "CN(C)CCNc1nc2sc3c(c2c(=O)n1-c1ccc(F)cc1)CCCCC3"
assay_value = -33.3

[[record]]
compound = "CC12CCC(C(=O)NC3CCCCC3)([C@H](Br)C1=O)C2(C)C (stereo partly shown)"
assay_value = 10.6

[[record]]
compound = "Cc1ccc(C)c(N2CCN(C(=O)Cn3cccc3)CC2)c1"
assay_value = -19

[[record]]
compound = "Cc1ccc(-n2nnc3ccccc3c2=O)cc1C"
assay_value = -2.63

[[record]]
compound = "Cl.NCCSC1CC(=O)N(c2ccc(F)cc2)C1=O (stereo not shown)"
assay_value = 17

[[record]]
compound = "Cc1cc(=O)oc2cc(OCC(O)CN3CCN(c4ccccc4)CC3)ccc12.Cl (stereo not shown)"
assay_value = -47.4

[[record]]
compound = "CCc1nc2cc(Cl)c(Cl)cc2[nH]1"
assay_value = 2.59

[[record]]
compound = "O=C(NNc1cccc([N+](=O)[O-])c1)/C(=C\\c1cccnc1)NC(=O)c1ccccc1"
assay_value = -30.6

[[record]]
compound = "Cc1cc(C)n(-c2ncc(-c3ccccc3)nn2)n1"
assay_value = -36.4

[[record]]
compound = "COc1ccc(N2CCN(CC(O)COc3cc(C)cc(C)c3)CC2)cc1.Cl (stereo not shown)"
assay_value = -48.8

[[record]]
compound = "COCCCn1c(C(=O)N2CCOCC2)cc2c(=O)n3cccc(C)c3nc21"
assay_value = -11.4

[[record]]
compound = "COc1ccccc1N1CCN(CC(O)COc2ccc3c(c2)CCC3)CC1.Cl (stereo not shown)"
assay_value = -74.2

[[record]]
compound = "COc1ccc(-n2c(NN)nc3sc4c(c3c2=O)CCCC4)cc1"
assay_value = -47.4

[[record]]
compound = "O=C(CN1C(=O)COc2ccc(S(=O)(=O)N3CCCC3)cc21)N1CCCC1"
assay_value = 9.85

[[record]]
compound = "O=c1cc(CNc2cc(C(F)(F)F)cc(C(F)(F)F)c2)nc2sccn12"
assay_value = -6.36

[[record]]
compound = "COc1cc2c(cc1NC(=O)CN1CCN(S(=O)(=O)c3ccccc3F)CC1)oc1ccccc12"
assay_value = 10.1

[[record]]
compound = "Cc1ccc(S(=O)(=O)N(c2cccc(C(F)(F)F)c2)C2C=CS(=O)(=O)C2)cc1 (stereo not shown)"
assay_value = 6.3


Ref: paper PMC4336329
